// data source = the supplement of paper PMC10065799

assayed_target: Jak2 (UniProt O60674)
Sequence (O60674 whole entry, looked up): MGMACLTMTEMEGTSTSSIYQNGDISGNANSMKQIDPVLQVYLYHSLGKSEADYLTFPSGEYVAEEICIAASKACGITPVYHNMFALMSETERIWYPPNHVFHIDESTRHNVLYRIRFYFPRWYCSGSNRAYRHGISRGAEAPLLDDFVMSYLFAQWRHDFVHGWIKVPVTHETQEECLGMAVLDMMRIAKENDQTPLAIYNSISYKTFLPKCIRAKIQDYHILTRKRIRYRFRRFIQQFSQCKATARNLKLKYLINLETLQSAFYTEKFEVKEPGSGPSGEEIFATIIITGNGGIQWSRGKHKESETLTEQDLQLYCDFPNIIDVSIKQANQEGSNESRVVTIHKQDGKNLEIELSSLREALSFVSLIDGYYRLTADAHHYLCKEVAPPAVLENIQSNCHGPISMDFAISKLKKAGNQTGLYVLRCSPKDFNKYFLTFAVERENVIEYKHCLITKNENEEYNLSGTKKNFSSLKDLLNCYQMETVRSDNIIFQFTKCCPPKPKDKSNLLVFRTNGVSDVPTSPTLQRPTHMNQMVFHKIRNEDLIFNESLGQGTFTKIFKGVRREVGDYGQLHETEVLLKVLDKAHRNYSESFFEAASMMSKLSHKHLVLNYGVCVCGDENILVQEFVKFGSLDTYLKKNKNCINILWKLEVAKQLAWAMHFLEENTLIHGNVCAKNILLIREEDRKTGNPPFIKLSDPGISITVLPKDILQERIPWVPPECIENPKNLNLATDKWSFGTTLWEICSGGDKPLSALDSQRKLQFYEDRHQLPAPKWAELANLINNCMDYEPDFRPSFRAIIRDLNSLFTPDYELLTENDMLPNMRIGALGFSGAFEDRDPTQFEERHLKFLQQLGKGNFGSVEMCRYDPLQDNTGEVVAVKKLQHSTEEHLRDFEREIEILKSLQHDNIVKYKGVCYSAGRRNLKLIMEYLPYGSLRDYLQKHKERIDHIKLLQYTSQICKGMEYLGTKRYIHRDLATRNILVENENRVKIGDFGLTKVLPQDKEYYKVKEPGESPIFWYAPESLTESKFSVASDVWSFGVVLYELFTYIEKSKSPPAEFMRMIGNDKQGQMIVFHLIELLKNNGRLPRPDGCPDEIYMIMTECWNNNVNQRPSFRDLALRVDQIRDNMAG
test: phosphorylation enrichment, bacterial display (enrichment ratio); higher = better substrate or ligand; peptides without Tyr show the background;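 note: 11-residue human phosphosite peptides and single-mutation variants displayed on the E. coli surface, counted by deep sequencing, each peptide's frequency after selection divided by its frequency in the unselected input library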;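 note: frequency after pTyr selection over input frequency; kinase dosed for 20-30% of maximal phosphorylation in three min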
This section presents sequences with their documented phosphorylation enrichment values.
// no unit, no text: just the number

# annotated cases, reported phosphorylation enrichment shown
QGGRRYMMIVD [GAA_Y438] | 0.568
TLKDVCDDGKF [RPS6KA3_Y483_Y483C_YF] | 0.873
GDFLSYREFHL [ERBIN_Y1107_S1112L_YF] | 0.824
HNLFSYPTKHE [MYO3A_Y1396_YF] | 1.01
LDAGEYCVPRG [BEX1_Y43] | 1.05
HESEIYGKVCF [CSRP3_Y57_C58G_YF] | 1.19

stdin: Give a short answer stating reported phosphorylation enrichment for CTHDLYMIMRE [FGFR3_Y724] .
stdout: 1.44

stdin: Give a short answer stating reported phosphorylation enrichment for FGSIMYEFVGK [SLC18A1_Y251_V249I] .
stdout: 0.703

stdin: Give a short answer stating reported phosphorylation enrichment for PPTYRYERGSR [INPPL1_Y663] .
stdout: 0.286

stdin: Give a short answer stating reported phosphorylation enrichment for KNITEYCRDLI [RECQL_Y492] .
stdout: 0.791

stdin: Give a short answer stating reported phosphorylation enrichment for KPGVNYYFRVS .
stdout: 1.16

stdin: Give a short answer stating reported phosphorylation enrichment for VDSLRYIYPKL [EIF2B3_Y92_A87V] .
stdout: 0.733

stdin: Give a short answer stating reported phosphorylation enrichment for VHNLDYYKETT [FGFR3_Y647_K650E] .
stdout: 0.714

stdin: Give a short answer stating reported phosphorylation enrichment for EVDETYVPKKF [ALB_Y521_E525K] .
stdout: 1.01
